Origin of the recorded values: paper PMC11451730

Consider molecules characterized by their pKi with UniProt P0AG18.
Sequence (P0AG18 whole entry): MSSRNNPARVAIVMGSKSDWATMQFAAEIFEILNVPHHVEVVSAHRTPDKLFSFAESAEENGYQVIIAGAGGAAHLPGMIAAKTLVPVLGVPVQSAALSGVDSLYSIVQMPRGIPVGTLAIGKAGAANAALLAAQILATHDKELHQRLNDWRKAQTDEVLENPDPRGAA
One number for each entry, as −log10 of the molar value.

MOLECULE: Cc1nc(-c2ccc(C3CCCN3)nc2)sc1C (stereo not shown) [Compound 22]
TESTED TARGET: UniProt P0AG18
OBSERVATION TYPE: pKi
OBSERVED RESULT: 3.80
--
MOLECULE: c1cnc(CC2CCNC2)nc1 (stereo not shown) [Compound 25]
TESTED TARGET: UniProt P0AG18
OBSERVATION TYPE: pKi
OBSERVED RESULT: 4.51
--
MOLECULE: CN1CCCC(c2cnc(-c3ncco3)cn2)C1 (stereo not shown) [Compound 2]
TESTED TARGET: UniProt P0AG18
OBSERVATION TYPE: pKi
OBSERVED RESULT: 5.32

Turning now to a further molecule:
Briefly, pKi measured for Cc1cnc(-c2ccc(C3CCCNC3)nc2)s1 (stereo not shown) [Compound 9] : 4.08
